- Measured On: human TRPV1 receptor (hTRPV1) (Homo sapiens (Human))
- Sequence (Q8NER1 whole entry): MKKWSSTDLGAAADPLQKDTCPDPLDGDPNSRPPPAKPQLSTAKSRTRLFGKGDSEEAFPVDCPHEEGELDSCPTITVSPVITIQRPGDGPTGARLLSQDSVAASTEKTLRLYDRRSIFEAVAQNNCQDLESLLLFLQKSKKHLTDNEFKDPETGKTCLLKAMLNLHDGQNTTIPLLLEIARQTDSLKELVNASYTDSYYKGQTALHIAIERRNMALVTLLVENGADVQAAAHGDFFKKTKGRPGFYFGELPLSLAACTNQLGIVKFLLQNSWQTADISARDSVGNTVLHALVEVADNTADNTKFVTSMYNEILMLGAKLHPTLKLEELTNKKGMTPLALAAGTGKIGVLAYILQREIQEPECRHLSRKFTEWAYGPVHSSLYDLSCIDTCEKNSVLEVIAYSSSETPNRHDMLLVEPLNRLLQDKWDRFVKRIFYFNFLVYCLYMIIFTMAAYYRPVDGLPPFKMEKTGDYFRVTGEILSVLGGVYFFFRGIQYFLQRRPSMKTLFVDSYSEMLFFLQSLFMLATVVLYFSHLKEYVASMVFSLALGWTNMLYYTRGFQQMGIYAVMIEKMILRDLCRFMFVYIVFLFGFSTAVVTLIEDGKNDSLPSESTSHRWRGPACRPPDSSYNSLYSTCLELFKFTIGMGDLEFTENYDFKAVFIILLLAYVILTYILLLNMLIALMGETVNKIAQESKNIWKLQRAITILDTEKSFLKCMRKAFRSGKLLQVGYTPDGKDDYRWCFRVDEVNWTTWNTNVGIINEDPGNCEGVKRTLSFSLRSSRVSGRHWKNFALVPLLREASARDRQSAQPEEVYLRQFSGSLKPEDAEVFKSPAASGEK
- Experimental Protocol: Acid activation assay (pH 5.0, FLIPR intracellular Ca2+)
- Type: cell-based
- Conditions: Table 1; 37.5 μM antagonist, percentage of the maximal pH 5.0-induced response remaining; read-out: hTRPV1 H+ (max % remain)
Consider the cut-off 60%. If the recorded remaining activity at 37.5 µM is strictly smaller, the label is 1.0; if not, the label is 0.0.

Compound: O=C(Nc1cccc2c1C[C@H](O)C2)N[C@H]1CC[C@@H](c2ccccc2)C1
Measured On: human TRPV1 receptor (hTRPV1) (Homo sapiens (Human))
Assigned Label: 1.0

Compound: O=C(Nc1cccc2[nH]ncc12)N[C@H]1C[C@@H](c2ccccc2)[C@@H](O)[C@H]1O
Measured On: human TRPV1 receptor (hTRPV1) (Homo sapiens (Human))
Assigned Label: 0.0

Compound: CN1C(=O)CCc2c(NC(=O)N[C@@H]3CC[C@@H](c4ccccc4F)C3)cccc21
Measured On: human TRPV1 receptor (hTRPV1) (Homo sapiens (Human))
Assigned Label: 1.0

For Cc1cc2c(NC(=O)N[C@@H]3CC[C@@H](c4ccccc4F)C3)c(F)ccc2cn1 , is the recorded remaining activity at 37.5 µM below the cut-off of 60%?
1.0

For O=C(Nc1cccc2c1CCC2)N[C@@H]1CC[C@H](c2ccccc2)C1 , is the recorded remaining activity at 37.5 µM below the cut-off of 60%?
1.0

For CN1C(=O)CCc2c(NC(=O)N[C@@H]3CC[C@@H](c4cccc(F)c4)C3)cccc21 , is the recorded remaining activity at 37.5 µM below the cut-off of 60%?
1.0

For O=C(Nc1ccc2c(c1)NC(=O)C(N1CCOCC1)C2)N[C@@H]1CC[C@H](c2ccccc2)C1 (stereo partly shown) , is the recorded remaining activity at 37.5 µM below the cut-off of 60%?
0.0

For CN1C(=O)CCc2ccc(NC(=O)N[C@@H]3CC[C@H](c4ccccc4)C3)cc21 , is the recorded remaining activity at 37.5 µM below the cut-off of 60%?
1.0
